Data credit: the supplement of paper PMC9170038

Entries and their apparent KD of MS2 coat protein values follow.
system: MS2 coat protein; test: apparent KD of MS2 coat protein; designed switch direction (-1 OFF switch, 1 ON switch): 1; higher = weaker reporter binding; settings: input ligand: FMN 200 uM

// worked examples, apparent KD of MS2 coat protein included
| SEQUENCE_CHAIN | RESULT |
| --- | --- |
| AAACAUGAGCGAGGAUAUACAUGAGGAUCACCCGUAGAAGGCGCAUGUAAAACAACAUGAGGAUCACCCAUGUCAUGUACAUGA [Same State NG1 S1] (Eterna round: R96, puzzle: Same State NG 1) | 61.5 nM |
| GCUAGAAUUAAAGCCAACAUGAGGAUCACCCAUGUAUGUUGGUAGGAUAUCGUUUGCAAAGCAAACGAGAAGGGCCAAACUAGC [Mat - Same State NG 3 - JL Mod - D19] (Eterna round: R96, puzzle: Same State NG 3) | 86.6 nM |
| GCCGGCUGGUGAGGAUAUGGCGCCUUGUUGGUGCCAGAAGGCAUGUCAAUUGACAUGAGGAUCACCCAUGUGUUGUCGUUGGCG [salish99_SSNG1_r04_611] (Eterna round: R96, puzzle: Same State NG 1) | 808 nM |

Req: Data request, read-out apparent KD of MS2 coat protein, for GGUCCAUCAUGAGGAUAUGGCACCUUAUUGGUGCCAGAAGGCAUGUAAAUUAUAAUAACAUGAGGAUCACCCAUGUAUUGGACC [Eli NG1ss - 95] (Eterna round: R96, puzzle: Same State NG 1)
Resp: 44.6 nM

Req: Data request, read-out apparent KD of MS2 coat protein, for CUGAGCAAUCUAGGAUAUCACGUCGUUUAGACGUGAGAAGGAGAUCAUAACAUGAGGAUCACCCAUGUAUUACAUGAAGCUCAG [SSNG1/7-A3] (Eterna round: R96, puzzle: Same State NG 1)
Resp: 13.1 nM

Req: Data request, read-out apparent KD of MS2 coat protein, for AUUACUAAUGCAGGAUAUGAUUAACAUGAGGAUCACCCAUGUGGUGUUGUGAGUAAGGAGAGUGAUCAGAAGGGCAUUUUUUUU [JMF's solution 29] (Eterna round: R96, puzzle: Same State NG 2)
Resp: 518 nM

Req: Data request, read-out apparent KD of MS2 coat protein, for GUUACAUGAGGAUCACCCAUGUAUGUGUGGGAGUAAGUGUCUUAGGAUAUCUAUUAUUUGAAUUAAGAGAAGGAAGAUUGUUGU [JMF's solution 21] (Eterna round: R96, puzzle: Same State NG 3)
Resp: 128 nM

Req: Data request, read-out apparent KD of MS2 coat protein, for AUUAUUUAUGCAGGAUAUGAUUAACAUGAGGAUCACCCAUGUGGUGUUGUGAGUAAGGAGAGUGAUCAGAAGGGCAUUUUUAUU [JMF's solution 52] (Eterna round: R96, puzzle: Same State NG 2)
Resp: 627 nM

Req: Data request, read-out apparent KD of MS2 coat protein, for CCGUAAAUGGAAGGAUAUGGAGCCUUAUUGGCUCCAGAAGGUUCAAUAACAUGAGGAUCACCCAUGUCGGCGGUCAAUAGACCG [Eli NG1ss - 79] (Eterna round: R96, puzzle: Same State NG 1)
Resp: 15.3 nM
